Attribution: ChEMBL document CHEMBL1144685

protocol_text: AUC (0 to 24 hrs) in Sprague-Dawley rat at 5 mg/kg, po
Assay type: ADME, organism-based
Parameters: time < 24 hr, dose 5 mg/kg, route oral
measurement_conditions: plasma
measured_parameter: AUC(0-t) at 24 h (ng·h/mL)
Numeric only. Scale: ng·h/mL

// lookup AUC(0-t) at 24 h for COc1cc2nccc(Oc3ccc4c(C(=O)Nc5ccc(Cl)cc5)cccc4c3)c2cc1OC 5250

---

protocol_text: AUC in VEGF soaked disk implanted Sprague-Dawley rat
Type: ADME, organism-based
measurement_conditions: plasma
measured_parameter: AUC (µM·h)
Numeric only. Scale: µM·h

// lookup AUC for COc1cc2nccc(Oc3ccc4c(C(=O)Nc5ccc(Cl)cc5)cccc4c3)c2cc1OC 1.3

---

protocol_text: Clearance in Sprague-Dawley rat at 2 mg/kg, iv
Assay type: ADME, organism-based
Parameters: dose 2 mg/kg, route intravenous
measurement_conditions: in vivo
measured_parameter: clearance
State the value with its unit after it.

// lookup clearance for COc1cc2nccc(Oc3ccc4c(C(=O)Nc5ccc(Cl)cc5)cccc4c3)c2cc1OC 3.33 mL/min/kg

---

protocol_text: Cmax in human HT29 cell xenografted CD1 nu/nu mouse at 30 mg/kg, po
Assay type: ADME, organism-based, HT-29
Set-up: dose 30 mg/kg, route oral
measurement_conditions: in vivo
measured_parameter: Cmax (µM)
Numeric only. Scale: µM

// lookup Cmax for COc1cc2nccc(Oc3ccc4c(C(=O)Nc5ccc(Cl)cc5)cccc4c3)c2cc1OC 3.9

---

protocol_text: Clearance in cynomolgus monkey at 1 mg/kg, iv
Assay type: ADME, organism-based, Macaca fascicularis
Set-up: dose 1 mg/kg, route intravenous
measurement_conditions: in vivo
measured_parameter: clearance (mL/min/kg)
Numeric only. Scale: mL/min/kg

// lookup clearance for COc1cc2nccc(Oc3ccc4c(C(=O)Nc5ccc(Cl)cc5)cccc4c3)c2cc1OC.CS(=O)(=O)O 3.33

---

protocol_text: Cmax in Sprague-Dawley rat at 5 mg/kg, po
Format: ADME, organism-based
Parameters: dose 5 mg/kg, route oral
measurement_conditions: in vivo
measured_parameter: Cmax (ng/mL)
Numeric only. Scale: ng/mL

// lookup Cmax for COc1cc2nccc(Oc3ccc4c(C(=O)Nc5ccc(Cl)cc5)cccc4c3)c2cc1OC 420

---

protocol_text: Half life in Sprague-Dawley rat at 0.25 mg/kg, iv
Type: ADME, organism-based
Set-up: dose 0.25 mg/kg, route intravenous
measurement_conditions: in vivo
measured_parameter: half-life

// lookup half-life for COc1cc2nccc(Oc3ccc4c(C(=O)Nc5ccc(Cl)cc5)cccc4c3F)c2cc1OC 17 h

---

protocol_text: Oral bioavailability in dog at 10 mg/kg
Type: ADME, organism-based, Canis lupus familiaris
measurement_conditions: in vivo
measured_parameter: bioavailability (%)
Numeric only. Scale: %

// lookup bioavailability for COc1cc2nccc(Oc3ccc4c(C(=O)Nc5ccc(Cl)cc5)cccc4c3)c2cc1OC.CS(=O)(=O)O 72

---

The reader will find log10 IC50 measurements below, all made with Vascular endothelial growth factor receptor 2 (Homo sapiens).
Scale: log10; quantity: IC50; unit before log: nM

Worked cases, answers included:
[
  {
    "structure_as_smiles": "COc1cc2nccc(Oc3ccc4c(C(=O)Nc5ccccc5)cccc4c3)c2cc1OC",
    "log10 IC50": -0.70
  },
  {
    "structure_as_smiles": "COc1cc2nccc(Oc3ccc4c(C(=O)Nc5ccccc5F)cccc4c3)c2cc1OC",
    "log10 IC50": 0.30
  },
  {
    "structure_as_smiles": "COc1cc2nccc(Oc3ccc4c(C(=O)Nc5cccnc5)cccc4c3)c2cc1OC",
    "log10 IC50": -0.10
  },
  {
    "structure_as_smiles": "COc1cc2nccc(Oc3ccc4c(C(=O)Nc5ccncc5)cccc4c3)c2cc1OC",
    "log10 IC50": 0.30
  },
  {
    "structure_as_smiles": "COc1cc2nccc(Oc3ccc4c(C(=O)Nc5ccc(Cl)cc5)cccc4c3F)c2cc1OC",
    "log10 IC50": -0.52
  }
]

Notebook entry, Vascular endothelial growth factor receptor 2 (Homo sapiens) assay: log10 IC50 of O=C(Nc1ccc(Cl)cc1)c1cccc2cc(Oc3ccncc3)ccc12 = ? 1.26

Notebook entry, Vascular endothelial growth factor receptor 2 (Homo sapiens) assay: log10 IC50 of COc1cc2nccc(Oc3ccc4c(C(=O)Nc5ccc(C)cc5)cccc4c3)c2cc1OC = ? -0.30

---

System: Plasma
protocol_text: Plasma concentration in BALB/c mouse at 30 mg/kg, po
Format: ADME, organism-based
Design: dose 30 mg/kg, route oral
measurement_conditions: in vivo
measured_parameter: concentration (nM)
Numeric only. Scale: nM

// lookup concentration for COc1cc2nccc(Oc3ccc4c(C(=O)Nc5ccc(Cl)cc5)cccc4c3)c2cc1OC 1500

---

protocol_text: Protein binding in dog plasma
Format: ADME, cell-free, Canis lupus familiaris
measurement_conditions: read-out: PPB (converted)
measured_parameter: fraction unbound
Answer with the value's number alone.

// lookup fraction unbound for COc1cc2nccc(Oc3ccc4c(C(=O)Nc5ccc(Cl)cc5)cccc4c3)c2cc1OC 0.026

---

tested_system: Vascular endothelial growth factor receptor 2 (Homo sapiens, UniProt P35968)
Sequence (P35968 whole entry): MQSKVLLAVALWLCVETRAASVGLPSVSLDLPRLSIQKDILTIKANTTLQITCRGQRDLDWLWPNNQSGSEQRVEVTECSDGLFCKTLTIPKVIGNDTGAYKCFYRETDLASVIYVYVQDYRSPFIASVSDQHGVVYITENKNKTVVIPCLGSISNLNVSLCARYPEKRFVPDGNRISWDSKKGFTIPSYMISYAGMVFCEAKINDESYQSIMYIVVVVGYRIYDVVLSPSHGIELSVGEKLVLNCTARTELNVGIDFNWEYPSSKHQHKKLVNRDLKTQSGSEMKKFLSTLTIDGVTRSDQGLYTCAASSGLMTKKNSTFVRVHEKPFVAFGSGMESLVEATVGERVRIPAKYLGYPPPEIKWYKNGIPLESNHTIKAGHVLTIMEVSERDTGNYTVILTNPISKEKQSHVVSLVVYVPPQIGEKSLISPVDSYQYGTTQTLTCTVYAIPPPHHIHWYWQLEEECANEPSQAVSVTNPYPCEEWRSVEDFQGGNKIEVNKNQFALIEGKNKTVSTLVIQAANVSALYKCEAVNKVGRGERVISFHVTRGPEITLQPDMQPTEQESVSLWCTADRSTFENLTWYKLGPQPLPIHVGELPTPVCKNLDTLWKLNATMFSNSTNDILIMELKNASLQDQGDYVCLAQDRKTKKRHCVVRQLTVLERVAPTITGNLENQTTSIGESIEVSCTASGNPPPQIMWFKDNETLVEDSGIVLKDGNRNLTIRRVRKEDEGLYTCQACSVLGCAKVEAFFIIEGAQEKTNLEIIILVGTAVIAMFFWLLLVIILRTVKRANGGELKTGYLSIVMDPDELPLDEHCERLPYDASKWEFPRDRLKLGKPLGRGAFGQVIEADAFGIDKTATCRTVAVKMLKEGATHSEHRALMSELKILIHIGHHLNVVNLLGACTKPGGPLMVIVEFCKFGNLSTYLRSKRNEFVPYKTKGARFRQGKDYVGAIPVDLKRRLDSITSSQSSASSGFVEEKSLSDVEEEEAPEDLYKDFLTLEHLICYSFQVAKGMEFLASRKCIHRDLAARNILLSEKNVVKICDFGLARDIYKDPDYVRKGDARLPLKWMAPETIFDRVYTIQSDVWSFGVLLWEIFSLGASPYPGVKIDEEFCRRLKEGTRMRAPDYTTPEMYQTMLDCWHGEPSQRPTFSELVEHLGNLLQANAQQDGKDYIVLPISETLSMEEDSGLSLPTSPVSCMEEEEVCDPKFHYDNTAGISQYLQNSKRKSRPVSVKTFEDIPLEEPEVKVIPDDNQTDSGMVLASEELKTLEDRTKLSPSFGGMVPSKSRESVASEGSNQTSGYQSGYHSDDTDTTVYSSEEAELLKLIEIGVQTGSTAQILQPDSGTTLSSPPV
We label by threshold. Values of IC50 strictly beneath 2 nM are condition met. Values of 2 nM and up are condition not met.

Please review the following examples before continuing.
[
  {
    "structure_as_smiles": "CNc1cc(Oc2ccc3c(C(=O)Nc4ccc(Cl)cc4)cccc3c2)ccn1",
    "class_label": "condition not met"
  },
  {
    "structure_as_smiles": "COc1cc2nccc(Oc3ccc4c(C(=O)NC(C)C)cccc4c3)c2cc1OC",
    "class_label": "condition not met"
  },
  {
    "structure_as_smiles": "COc1cc2nccc(Oc3ccc4c(C(=O)Nc5cc(Cl)cc(Cl)c5)cccc4c3)c2cc1OC",
    "class_label": "condition met"
  },
  {
    "structure_as_smiles": "COc1cc2nccc(Oc3ccc4c(C(=O)Nc5cc(C)on5)cccc4c3)c2cc1OC",
    "class_label": "condition met"
  },
  {
    "structure_as_smiles": "O=C(Nc1ccc(Cl)cc1)c1cccc2cc(Oc3ccncn3)ccc12",
    "class_label": "condition not met"
  },
  {
    "structure_as_smiles": "COc1cc2nccc(Oc3ccc4c(C(=O)Nc5cc(C(C)(C)C)on5)cccc4c3)c2cc1OC",
    "class_label": "condition met"
  },
  {
    "structure_as_smiles": "COc1cc2nccc(Oc3ccc4c(C(=O)Nc5cccc(F)c5)cccc4c3)c2cc1OC",
    "class_label": "condition met"
  },
  {
    "structure_as_smiles": "COc1cc2nccc(Oc3cc4cccc(C(=O)Nc5ccc(Cl)cc5)c4cn3)c2cc1OC",
    "class_label": "condition not met"
  }
]

API: query returns whether the compound falls strictly under 2 nM in IC50. Query: O=C(Nc1ccc(Cl)cc1)c1cccc2cc(Oc3ccnc4ccccc34)ccc12 condition not met

---

protocol_text: Oral bioavailability in mouse at 10 mg/kg, po
Format: ADME, organism-based
measurement_conditions: in vivo
measured_parameter: bioavailability (%)
Numeric only. Scale: %

// lookup bioavailability for COc1cc2nccc(Oc3ccc4c(C(=O)Nc5ccc(Cl)cc5)cccc4c3)c2cc1OC.CS(=O)(=O)O 24

---

protocol_text: Oral bioavailability in Sprague-Dawley rat at 5 mg/kg
Assay type: ADME, organism-based
measurement_conditions: in vivo
measured_parameter: bioavailability (%)
Numeric only. Scale: %

// lookup bioavailability for COc1cc2nccc(Oc3ccc4c(C(=O)Nc5ccc(Cl)cc5)cccc4c3)c2cc1OC 21

---

protocol_text: Mean retention time in Sprague-Dawley rat at 1 mg/kg, iv
Type: ADME, organism-based
Set-up: dose 1 mg/kg, route intravenous
measurement_conditions: in vivo
measured_parameter: MRT (h)
Numeric only. Scale: h

Worked cases, answers included:
[
  {
    "structure_as_smiles": "COc1cc2nccc(Oc3ccc4c(C(=O)Nc5ccncc5)cccc4c3)c2cc1OC",
    "MRT (h)": 2.5
  },
  {
    "structure_as_smiles": "COc1cc2nccc(Oc3ccc4c(C(=O)Nc5cccnc5)cccc4c3)c2cc1OC",
    "MRT (h)": 1.4
  }
]

Then there is this compound:
// lookup MRT for COc1cc2nccc(Oc3ccc4c(C(=O)Nc5ccccn5)cccc4c3)c2cc1OC 7.8

---

protocol_text: Clearance in Sprague-Dawley rat at 0.5 mg/kg, iv
Type: ADME, organism-based
Design: dose 0.5 mg/kg, route intravenous
measurement_conditions: in vivo
measured_parameter: clearance (mL/min/kg)
Numeric only. Scale: mL/min/kg

// lookup clearance for COc1cc2nccc(Oc3ccc4c(C(=O)Nc5cc(C)no5)cccc4c3)c2cc1OC 21.7

---

Catalogue of clearance readings, one per entry.
protocol_text: Clearance in Sprague-Dawley rat at 1 mg/kg, iv
Type: ADME, organism-based
Set-up: dose 1 mg/kg, route intravenous
measurement_conditions: in vivo
Numeric only. Scale: mL/min/kg

Worked cases, answers included:
[
  {
    "structure_as_smiles": "COc1cc2nccc(Oc3ccc4c(C(=O)Nc5cccnc5)cccc4c3)c2cc1OC",
    "clearance, mL/min/kg": 15
  },
  {
    "structure_as_smiles": "COc1cc2nccc(Oc3ccc4c(C(=O)Nc5ccncc5)cccc4c3)c2cc1OC",
    "clearance, mL/min/kg": 10
  }
]

Then there is this molecule:
// lookup clearance for COc1cc2nccc(Oc3ccc4c(C(=O)Nc5ccccn5)cccc4c3)c2cc1OC 6.67
